Where these numbers come from: patent EP0326331B1

# System: Rhynchosporium secalis
# Test name: Field tests against plant pathogens
# Assay type: in vivo
# Condition details: field test, crop barley
Readout kind: pathogens against which compounds of the invention showed activity

Previously resolved entries follow.
Fc1cccc2c(OCCc3ccc(-c4ccccc4)cc3)ccnc12
Rhynchosporium secalis
Fc1cccc2c(NCCc3ccc4ccccc4c3)ccnc12
Rhynchosporium secalis
Fc1cccc2c(NCCc3ccccc3)ccnc12
Rhynchosporium secalis
Fc1cccc2c(OCCc3ccccc3)ccnc12
Rhynchosporium secalis
CC(=O)N(CCc1ccc(Cl)cc1)c1ccnc2c(F)cccc12
Rhynchosporium secalis

Field: pathogens against which compounds of the invention showed activity (Rhynchosporium secalis). Entry: Cc1ccc(CCOc2ccnc3c(F)cccc23)cc1
Rhynchosporium secalis
